# MEASURED_ON: Single-strand selective monofunctional uracil DNA glycosylase (Homo sapiens) (UniProt Q53HV7)
# Sequence (Q53HV7 whole entry): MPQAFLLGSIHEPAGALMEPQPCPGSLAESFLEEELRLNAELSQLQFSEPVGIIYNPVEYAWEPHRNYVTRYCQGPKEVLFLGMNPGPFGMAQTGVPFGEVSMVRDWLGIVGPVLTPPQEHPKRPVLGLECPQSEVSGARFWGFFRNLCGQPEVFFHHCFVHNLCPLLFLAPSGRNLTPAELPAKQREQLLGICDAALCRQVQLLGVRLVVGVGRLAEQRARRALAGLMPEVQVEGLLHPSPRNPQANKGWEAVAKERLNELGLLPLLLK
# CONDITION_DESCRIPTION: Compound Concentration 1.0 uM, Hit No;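 also: enzymatic SMUG1 assay coupled with APE1, reading fluorescence at 594 nm released when a quenched double-stranded DNA oligonucleotide substrate is cleaved and separated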
# Description: Inhibition of SMUG1 by quantifying inhibition of SMUG1-mediated cleavage and dissociation of quenched duplex DNA oligonucleotides, measured as fluorescence at 594 nm. To generate a functional strand incision and increase turn-over this assay is coupled to APE1.
RECORDED_ENDPOINT: inhibition (%)
# output: bare number, implied unit %

Exercise: Fill blank: measured inhibition of the compound `Cc1cnc(Nc2ccc(F)cc2Cl)nc1-c1c[nH]c(C(=O)N[C@H](CO)c2cccc(Cl)c2)c1` is ____.
Solution: 23.9

Exercise: What do you get for `CN(C)CC#Cc1ccc2[nH]c3c(c2c1)-c1nc(N)ncc1CCC3` ?
Solution: 11.2

Exercise: What do you get for `Cc1cccc(-c2[nH]c(CNc3ccccc3F)nc2-c2ccc3ncnn3c2)n1` ?
Solution: -5.72

Exercise: What do you get for `CN1CCN(C(=O)C(C)(C)c2ccc(C(=O)Nc3cn4cc(-c5cc(C(C)(C)C)cc(C(C)(C)C)c5)ccc4n3)cc2)CC1` ?
Solution: 20
